Recorded values, source ChEMBL document CHEMBL1201862.

- Tested on: NCI-H522
- test-description: NCI tumour cell line growth inhibition, 48 h
Active and inactive are the calls of the source. Cut-off read from the data, not from the text of the source: active = GI50 up to about 1.1 µM and inactive = higher.
measure: GI50

// below: answered compounds
CN1CC[C@]2(C)c3ccc(O)cc3CC3CCCC1C32C (stereo not given in full)	> 100 µM (inactive)
Cc1cc(C)nc(NS(=O)(=O)c2ccc(NC(=O)c3cccc4c(Nc5ccc(S(=O)(=O)N=C(N)N)cc5)c5ccccc5nc34)cc2)n1	44.3 µM (inactive)
CC1=NN(c2nc(N)nc(-c3sccc3N)n2)C(C)(C)C1	32.7 µM (inactive)

Ask: For the compound `O=C1C(=CNC(=S)c2ccccc2)C(=O)c2ccccc21` , what GI50 is on record?
Result: 21 µM (inactive)

Ask: What does the data say about its GI50? Entry: `CC(C)C(/C=C/c1ccc(Br)cc1)=N\NC(N)=O`
Result: 70.3 µM (inactive)

* * *

# reported GI50; entries follow
- Tested on: UO-31
- test-description: NCI tumour cell line growth inhibition, 48 h
The source made the active and inactive calls. Rule as the data show it: active = GI50 up to about 1.1 µM and inactive = higher.

Use these answered entries as a reference point.
CCOC(=O)c1c(C)n(Cc2ccccc2)c2c1cc(O)c1[nH]c3c(c12)CCCC3	2.58 µM (inactive)
Cc1cc(S(=O)(=O)Nc2nc(N)nc(N(C)C)n2)c(S)cc1Cl	> 10 µM (inactive)
COc1cc(/N=N/N(C)C)c(C(C)c2c3cc(OC)c(OC)cc3cc[n+]2C)cc1OC (stereo not given)	> 100 µM (inactive)
O=C(N/C(=C\c1cccc([N+](=O)[O-])c1)c1nc2ccccc2[nH]1)c1ccccc1	16.6 µM (inactive)

Continue with the compound presented below.
Ask: Request the reported GI50 associated with COc1cc(C2SCCCCCCCCCCSC(c3ccc(O)c(OC)c3)SCCCCCCCCCCS2)ccc1O (stereo not given)
Result: > 100 µM (inactive)

* * *

- Test system: SNB-75
- test-description: NCI tumour cell line growth inhibition, 48 h
The source made the active and inactive calls. No stated cut-off is given here; in the data, active = GI50 up to about 1.1 µM and inactive = higher.
Pick one and only one: true (1) for active, false (0) for inactive

Worked set:
CCOC(=O)C(=O)/C(=C/n1c(=S)[nH]c2ccc([N+](=O)[O-])cc21)C(=O)OCC	false (0)
CSc1[nH]nc(N)c1C(=O)Nc1ccc(Cl)cc1	false (0)
Cc1[nH]c(=O)nc(N/N=C/c2ccc(O)cc2)c1C(=O)Nc1ccc(O)cc1	false (0)
Cc1cc(NS(=O)(=O)c2ccc(Nc3c4ccccc4nc4c(C(=O)NC(CO)(CO)CO)cccc34)cc2)no1	false (0)
Cc1cc(S(=O)(=O)Nc2nc(N)nc(N(C)C)n2)c(S)cc1Cl	false (0)
Cn1c(=O)ccc2c(=O)c3ccccc3oc21	true (1)
CN1CC[C@]2(C)c3ccc(O)cc3CC3CCCC1C32C (some centres not stated)	false (0)
COc1ccc(C(=O)O/N=C2/CCC/C2=C\c2ccccc2)cc1	false (0)
Cn1c(=O)c2sc3c4sc5c(=O)n(C)c6ccccc6c5c4sc3c2c2ccccc21	false (0)
CN(c1ccccc1)c1c(-c2ccccc2)c(=O)oc2c1ccc1occc12	false (0)

Ask: Fill in: this test's call for `CCOC(=O)Nc1ccc(S(=O)(=O)I)cc1.CCOC(=O)Nc1ccc(S(=O)(=O)I)cc1.CNC(=O)N=O.NC(=O)OCCCl` is ___
Result: false (0)

Ask: // param item: COC1=C(OC)C23CCc4ccc(OC)c(O)c4C2(CCN3)CC1=O (configuration not stated) ; yields the recorded call
Result: false (0)

Ask: I would be grateful if you could indicate the recorded call for Cc1ccc(-n2c(Cn3nnc(-c4cccnc4)n3)nn(C3OC(COC(=O)c4ccccc4)C(OC(=O)c4ccccc4)C3OC(=O)c3ccccc3)c2=S)cc1 (configuration not stated) .
Result: false (0)

Ask: Can you look up the reported call for CC(C(=O)N1C(=O)N(C(=O)[C@H](C)C(O)c2ccccc2)[C@H](c2ccccc2)[C@H]1c1ccccc1)[C@@H](O)c1ccccc1 (some centres not stated) for me?
Result: false (0)

Ask: Hey, what did the test say about COc1cc(/N=N/N(C)C)c(C(C)c2c3cc(OC)c(OC)cc3cc[n+]2C)cc1OC (configuration not stated) ?
Result: false (0)

Ask: Hello, I am checking results. What call was entered for Nc1cccc(OCC2CCCN3CCCCC23)c1 (configuration not stated) ?
Result: false (0)
